# MEASURED TARGET: T1, soluble human RGMa (human, UniProt Q96B86 48-422, limits assumed)
# T1 construct: Soluble antigen in BIAcore; also called huRGMa; repulsive guidance molecule A
# T1 sequence (looked up): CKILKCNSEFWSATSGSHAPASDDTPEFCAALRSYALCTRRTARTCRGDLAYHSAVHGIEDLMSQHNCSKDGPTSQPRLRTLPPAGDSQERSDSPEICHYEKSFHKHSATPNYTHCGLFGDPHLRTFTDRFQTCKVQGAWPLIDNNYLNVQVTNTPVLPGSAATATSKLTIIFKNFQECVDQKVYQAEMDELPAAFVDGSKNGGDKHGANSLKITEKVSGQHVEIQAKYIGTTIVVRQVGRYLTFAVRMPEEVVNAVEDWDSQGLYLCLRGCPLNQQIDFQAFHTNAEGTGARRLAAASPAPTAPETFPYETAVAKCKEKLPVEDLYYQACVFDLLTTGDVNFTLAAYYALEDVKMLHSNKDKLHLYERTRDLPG
# TEST METHOD NOTES: SPR (BIAcore);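 note: Anti-HJV antibodies tested for binding against soluble human RGMa by surface plasmon resonance on a BIAcore instrument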
ENDPOINT: pKd
A value of pKd is the negative decimal logarithm of a concentration given in moles per litre.

BINDER	MEASUREMENT
hHA-002 (antibody, human IgG1, kappa, L234A L235A, V domains shown, hIgG1 L234A, L235A, kappa) VH: EVQLVESGGGLVQPGGSLRLSCAASGFTFSNYGMNWIRQAPGKGLEWIGMIYYDSSEKHYADSVKGRFTISRDNSKNTLYLQMNSLRAEDTAVYYCAKGTTPDYWGQGTMVTVSS VL: DVVLTQSPLSLPVTLGQPASISCRSSQSLETSDGDTFLEWFQQRPGQSPRLLIYEVSSRFSGVPDRFSGSGSGTDFTLKISRVEAEDVGVYYCMQVTHDPLTFGQGTKLEIKR	10.43

input: Would you mind telling me what pKd value was observed for hHA-010 (antibody, human IgG1, kappa, L234A L235A, V domains shown, hIgG1 L234A, L235A, kappa) VH: EVQLVESGGGLVQPGGSLRLSCAASGFTFSNYGMNWVRQAPGKGLEWIGMIYYDSSEKHYADSVKGRFTISRDNSKNTLYLQMNSLRAEDTAVYYCAKGTTPDKWGQGTMVTVSS VL: DVVLTQSPLSLPVTLGQPASISCRSSQSLEESDGYTFLEWFQQRPGQSPRLLIYEVSHRFSGVPDRFSGSGSGTDFTLKISRVEAEDVGVYYCFQATHDPLTFGQGTKLEIKR ?
output: 9.92

input: Would you mind telling me what pKd value was observed for hHA-006 (antibody, human IgG1, kappa, L234A L235A, V domains shown, hIgG1 L234A, L235A, kappa) VH: EVQLVESGGGLVQPGGSLRLSCAASGFTFSYYGMNWIRQAPGKGLEWIGMIYYDSSEKHYADSVKGRFTISRDNSKNTLYLQMNSLRAEDTAVYYCAKGTTPDYWGQGTMVTVSS VL: DVVLTQSPLSLPVTLGQPASISCRSSQSLEDSDGGTFLEWFQQRPGQSPRLLIYDVSSRFSGVPDRFSGSGSGTDFTLKISRVEAEDVGVYYCFQATHDPLTFGQGTKLEIKR ?
output: 9.92

input: Would you mind telling me what pKd value was observed for hHA-007 (antibody, human IgG1, kappa, L234A L235A, V domains shown, hIgG1 L234A, L235A, kappa) VH: EVQLVESGGGLVQPGGSLRLSCAASGFTFSNYGMNWIRQAPGKGLEWIGMIYYDSSDKHYADSVKGRFTISRDNSKNTLYLQMNSLRAEDTAVYYCAKGTTPDVWGQGTMVTVSS VL: DVVLTQSPLSLPVTLGQPASISCRSSQSLEESDGYTFLHWFQQRPGQSPRLLIYEVSNRFSGVPDRFSGSGSGTDFTLKISRVEAEDVGVYYCFQATHDPVTFGQGTKLEIKR ?
output: 9.82

Recorded values, source patent US20240417458A1.
